- Target Under Test: δ-plasmin (Homo sapiens, UniProt P00747, DEL181-559)
- Sequence (P00747 with tags, fused parts or gaps K528E/G536N/V538P/G539Q/N547D/R549E/L551R/V557I/P558L/Q559E): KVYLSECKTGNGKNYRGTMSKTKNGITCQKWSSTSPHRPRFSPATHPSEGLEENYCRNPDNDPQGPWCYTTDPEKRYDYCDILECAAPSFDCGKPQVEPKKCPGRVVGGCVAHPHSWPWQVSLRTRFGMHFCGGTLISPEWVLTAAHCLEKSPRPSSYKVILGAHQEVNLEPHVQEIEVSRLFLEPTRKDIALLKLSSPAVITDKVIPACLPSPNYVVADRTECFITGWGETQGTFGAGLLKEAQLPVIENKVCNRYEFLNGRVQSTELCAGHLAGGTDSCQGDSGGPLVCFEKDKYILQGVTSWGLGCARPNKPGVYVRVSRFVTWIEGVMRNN
- Assay Protocol: S-2251 inhibition assay (Dixon plot), δ-plasmin
- Particulars: Dixon plot, S-2251 100, 350, 750 μM, enzyme 1.0 μg/mL, PBS pH 7.4; unit inferred
Readout Label: Ki (µM)

a: N=C(N)c1ccc(N)cc1
b: N=C(N)c1ccc(C(=O)O)cc1
input: Lab log: flag the item ( a or b ) with the smaller Ki figure. Give the label of your selection.
output: a
(a: 60.6 µM, b: 302 µM)

* * *

- Target Under Test: plasmin (Homo sapiens, UniProt P00747)
- Sequence (P00747 97-580 partner limits assumed, one chain of several): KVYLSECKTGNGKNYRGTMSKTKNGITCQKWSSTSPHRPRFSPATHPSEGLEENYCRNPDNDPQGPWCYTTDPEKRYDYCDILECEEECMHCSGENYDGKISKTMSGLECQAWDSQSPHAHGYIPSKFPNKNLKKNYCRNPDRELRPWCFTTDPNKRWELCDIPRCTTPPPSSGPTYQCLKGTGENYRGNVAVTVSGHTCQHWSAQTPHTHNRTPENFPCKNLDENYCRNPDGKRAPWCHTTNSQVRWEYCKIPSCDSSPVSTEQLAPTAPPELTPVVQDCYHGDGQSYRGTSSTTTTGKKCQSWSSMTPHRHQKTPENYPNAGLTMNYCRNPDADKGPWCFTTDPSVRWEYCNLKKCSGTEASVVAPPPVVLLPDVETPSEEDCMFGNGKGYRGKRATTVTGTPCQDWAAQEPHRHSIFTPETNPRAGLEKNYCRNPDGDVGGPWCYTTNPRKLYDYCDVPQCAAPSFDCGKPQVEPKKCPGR
- Assay Protocol: Fluorescence titration dissociation constant (Kd) assay
- Particulars: emission 370 nm, PBS pH 7.4, no S-2251; unit inferred; read-out: Kd by fluorescence titration (PB Fl Ki)
Readout Label: Kd (µM)
Express it in µM; write the number only.

Recorded Kd (molecule "N=C(N)c1ccc(N)cc1" ): 53.5

Provenance of the data: patent US20220218639A1
